The origin of these recorded values is PubChem BioAssay AID1159580.

# experiment-notes: chemical genetic growth profiling, strain panel (AID 1159580);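 further: tested at 20 µM; growth read once vehicle control cultures reached saturation at 30 °C; 1 = growth at the plate median or of vehicle wells; lower values mean less growth of the strain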
# assay-setup: S. cerevisiae deletion strains, growth OD, locus YJR043C, strain POL32, stronger effect = lower value
Out of some 5,500 compounds screened, about 2,000 (36%) were called active. Inconclusive results (about 18%) are left out. The list shows a part of the results.
measurement-kind: normalized growth
Write the value as a bare number.

// known answers, use as guide
molecule	measurement-kind	value-observed
O=C(Nc1cc(C(F)(F)F)cc(C(F)(F)F)c1)C(c1ccccc1)C1CCCC1 (stereo unspecified)	normalized growth	1.01
CC(C)(C)NC(=S)NC1CCN(Cc2ccccc2)CC1	normalized growth	0.995
Cc1nn(Cc2ccccc2Cl)c(=N)s1	normalized growth	0.991

q: Name the recorded normalized growth for Cc1onc2c(=O)n(-c3ccccc3)nc(-c3ccccc3)c12 .
a: 1.01

q: Same thing, different molecule: CNc1ccc(C(=O)CC(O)CCC(C)C2OC(=O)CC(O)CC(=O)CC(O)CC(O)CC(O)CC(O)CC3(O)CC(O)C(C(=O)OC)C(CC(OC4OC(C)C(O)C(N)C4O)/C=C/C=C/C=C/C=C/C=C/C=C/C=C/C2C)O3)cc1 (stereo unspecified)
a: 0.0719

q: Item: FC(F)(F)c1cccc(N2CCNCC2)c1
a: 1

q: And NC(N)=NC(N)=Nc1ccccc1C(F)(F)F ?
a: 0.998

q: Ok, now O=C1NC2(CCN(Cc3ccccc3)CC2)Oc2ccccc21
a: 1
